system: ob/ob mice; assay: Anti-obesity test: lipid metabolism-related materials and glucose in blood of ob/ob mice; assay type: in vivo; conditions: 100 mg/kg oral twice a day, 28 days, fasted 16 hours, plasma
recorded-metric: NEFA (free fatty acid)

Please review the following examples before continuing.
Cc1ccc(-c2nc(CCOc3cccc(CN(CC(=O)O)S(=O)(=O)N(C)C)c3)c(C)o2)cc1 [Example 62] :: 976 ± 238 UEq/l
Cc1oc(-c2ccc(C(F)(F)F)cc2)nc1COc1cccc(CN(CC(=O)O)S(=O)(=O)N(C)C)c1 [Example 5] :: 880 ± 273 UEq/l
Cc1oc(-c2ccc(C(F)(F)F)cc2)nc1CCOc1cccc(CN(CC(=O)O)S(=O)(=O)N(C)C)c1 [Example 65] :: 1,006 ± 203 UEq/l

Moving on to another compound below.
Record CC(C)OC(=O)C(C)(C)Oc1ccc(C(=O)c2ccc(Cl)cc2)cc1 [fenofibrate, reference compound] . Reported NEFA (free fatty acid): 1,003 ± 80 UEq/l
